Each recorded value in this set is attributed to patent US12723100.

Target: T1, human Nectin 2 (ACROBiosystems, Catalog no: PV2-H52E2) (human, UniProt Q92692 32-360)
T1 construct: extracellular domain
T1 sequence (looked up): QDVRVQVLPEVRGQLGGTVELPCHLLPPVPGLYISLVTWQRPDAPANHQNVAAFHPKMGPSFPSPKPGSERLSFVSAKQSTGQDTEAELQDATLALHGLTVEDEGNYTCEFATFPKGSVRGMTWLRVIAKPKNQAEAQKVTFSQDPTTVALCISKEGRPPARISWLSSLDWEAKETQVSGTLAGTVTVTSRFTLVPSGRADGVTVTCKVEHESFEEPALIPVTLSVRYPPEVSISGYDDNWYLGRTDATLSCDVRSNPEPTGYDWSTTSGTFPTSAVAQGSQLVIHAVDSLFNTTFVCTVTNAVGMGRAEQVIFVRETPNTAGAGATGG
Assay: ELISA or Gator binding assay

binder	binding result
N4_mAb 6 (antibody, human IgG1, V domains shown, Tested as chimera (murine variable regions, human IgG1/kappa constants); not shown: human IgG1 constant region (Uniprot P01857); human Kappa light chain constant region (UniProt P01834)) VH: QVQLQQSGPELVKPGASVRISCKASGYTFTTYYIHWVKQRPGQGLEWIGWIYPGNVNTKYTENFKDKATLTADKSSSTAYMQLSSLTSEDSAVYFCARGLYYFDFWGQGTTLTVSS VL: SIVMTQTPKFLLVSAGDRVTITCKASQSVNNDVAWYQQKPGQSPKLLIYYASNRDTGVPDRFTGSGFGTDFTFTISSVQAEDLAVYFCQQDYSSPYTFGGGTKLEIK	no binding
N4_mAb 7 (antibody, human IgG1, V domains shown, Tested as chimera (murine variable regions, human IgG1/kappa constants); not shown: human IgG1 constant region (Uniprot P01857); human Kappa light chain constant region (UniProt P01834)) VH: QVQLQQSGPELVKPGASVKMSCKASGYTFTTYYIHWVKQRPGQGLEWIGWIYPGNAGIKSNEKFKGKTTLTADKSSSTAYMLLSSLTSEDSAIYFCARGVYFFDYWGQGTTLTVSS VL: SIVMTQTPKFLLVSAGDRVTITCKASQSVNNDVSWFQQKPGQSPKLLIYYASNRYTGVPDRFSGSGYGTDFTFTITTVQAEDLAVYFCQQDYSSPYTFGGGTKLEIK	no binding
N4_mAb 3 (antibody, human IgG1, V domains shown, Tested as chimera (human IgG1/kappa constants); not shown: human IgG1 constant region (Uniprot P01857); human Kappa light chain constant region (UniProt P01834)) VH: EVQLQQSGAELVKPGASVKLSCTVSGFNIKDTYMHWVKQRPEQGLEWIGRIDPANGNTKYDPKFQGKATIIADKASNTAYLQLSSLTSEDAAVYYCAHYYGSSYFAMDCWGQGTSVTVSS VL: DIVMTQSHKFMSTSVGDRVSITCKASQDVSTAVAWYQQKPGQSPKLLIYWASTRHTGVPDRFTGSGSGTDYTLTISSVQTEDLALYYCQQHYSTPLTFGAGTKLELK	no binding
